# System: LXRb homodimer (NR concentration 270 nM)
# procedureDetails: PBM binding z-score (relative to random genomic background probes); higher = stronger binding; sequences stand for … in GC…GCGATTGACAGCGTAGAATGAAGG
PBM binding z-score of -0.3 or higher: 1. Under -0.3: 0.

- residueSequence: "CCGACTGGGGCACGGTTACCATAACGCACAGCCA"
  classLabel: 0
- residueSequence: "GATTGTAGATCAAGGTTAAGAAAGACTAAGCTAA"
  classLabel: 0
- residueSequence: "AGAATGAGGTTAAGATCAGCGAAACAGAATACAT"
  classLabel: 1
- residueSequence: "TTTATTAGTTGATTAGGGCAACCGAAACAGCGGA"
  classLabel: 1
- residueSequence: "TAGCCTAGGTCATGGGCCATTATACCACGCGAAC"
  classLabel: 1
- residueSequence: "AGAACGAGGGCACGCTGAGTTGATAGCGGAGTAG"
  classLabel: 0
- residueSequence: "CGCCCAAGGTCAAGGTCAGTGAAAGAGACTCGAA"
  classLabel: 1
- residueSequence: "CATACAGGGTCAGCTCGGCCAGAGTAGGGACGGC"
  classLabel: 1
- residueSequence: "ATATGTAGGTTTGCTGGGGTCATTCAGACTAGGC"
  classLabel: 1
- residueSequence: "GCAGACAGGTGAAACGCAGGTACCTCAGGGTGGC"
  classLabel: 0
- residueSequence: "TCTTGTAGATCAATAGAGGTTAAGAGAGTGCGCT"
  classLabel: 1
- residueSequence: "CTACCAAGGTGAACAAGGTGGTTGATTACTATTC"
  classLabel: 0

* * *

# Test system: FXR:RXRa (NR concentration 270 nM, RXRa partner concentration 90 nM)
# procedureDetails: PBM binding z-score (relative to random genomic background probes); higher = stronger binding; sequences stand for … in GC…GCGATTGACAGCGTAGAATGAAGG
Here the recorded PBM binding z-score is given for each entry.

- residueSequence: "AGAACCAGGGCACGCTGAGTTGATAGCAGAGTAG"
  measurementTarget: "FXR:RXRa (NR concentration 270 nM, RXRa partner concentration 90 nM)"
  PBM binding z-score: -0.172
- residueSequence: "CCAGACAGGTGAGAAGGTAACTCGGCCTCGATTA"
  measurementTarget: "FXR:RXRa (NR concentration 270 nM, RXRa partner concentration 90 nM)"
  PBM binding z-score: -0.0113
- residueSequence: "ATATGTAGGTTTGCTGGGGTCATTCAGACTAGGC"
  measurementTarget: "FXR:RXRa (NR concentration 270 nM, RXRa partner concentration 90 nM)"
  PBM binding z-score: 3.58
- residueSequence: "CGTCCAAGGTCAAAGGTCCGTGAAGAGATGACGG"
  measurementTarget: "FXR:RXRa (NR concentration 270 nM, RXRa partner concentration 90 nM)"
  PBM binding z-score: 7.36
- residueSequence: "TCTAGTTGGTCAAAGGTCACACTCTCGAAATGCG"
  measurementTarget: "FXR:RXRa (NR concentration 270 nM, RXRa partner concentration 90 nM)"
  PBM binding z-score: 5.93
- residueSequence: "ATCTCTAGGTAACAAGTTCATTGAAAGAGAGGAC"
  measurementTarget: "FXR:RXRa (NR concentration 270 nM, RXRa partner concentration 90 nM)"
  PBM binding z-score: 1.22
- residueSequence: "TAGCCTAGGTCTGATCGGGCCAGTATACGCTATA"
  measurementTarget: "FXR:RXRa (NR concentration 270 nM, RXRa partner concentration 90 nM)"
  PBM binding z-score: -0.28
- residueSequence: "CTTTACGGGTCACTCCAGGTTATAGCATCGGAGT"
  measurementTarget: "FXR:RXRa (NR concentration 270 nM, RXRa partner concentration 90 nM)"
  PBM binding z-score: 5.38
- residueSequence: "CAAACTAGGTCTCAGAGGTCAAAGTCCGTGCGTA"
  measurementTarget: "FXR:RXRa (NR concentration 270 nM, RXRa partner concentration 90 nM)"
  PBM binding z-score: 4.78
- residueSequence: "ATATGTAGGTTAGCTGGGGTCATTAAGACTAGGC"
  measurementTarget: "FXR:RXRa (NR concentration 270 nM, RXRa partner concentration 90 nM)"
  PBM binding z-score: 4.6
- residueSequence: "ATATGAAGGTTAGCTGGGGTCATTCAGACTAGGC"
  measurementTarget: "FXR:RXRa (NR concentration 270 nM, RXRa partner concentration 90 nM)"
  PBM binding z-score: 5.27
- residueSequence: "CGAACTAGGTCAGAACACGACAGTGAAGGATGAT"
  measurementTarget: "FXR:RXRa (NR concentration 270 nM, RXRa partner concentration 90 nM)"
  PBM binding z-score: 1.16
- residueSequence: "ACTAGTTGGTCAGCTGAGGTTACACACAATTCGG"
  measurementTarget: "FXR:RXRa (NR concentration 270 nM, RXRa partner concentration 90 nM)"
  PBM binding z-score: 1.56
- residueSequence: "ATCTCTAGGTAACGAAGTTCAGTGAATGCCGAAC"
  measurementTarget: "FXR:RXRa (NR concentration 270 nM, RXRa partner concentration 90 nM)"
  PBM binding z-score: 0.145
- residueSequence: "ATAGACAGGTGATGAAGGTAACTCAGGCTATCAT"
  measurementTarget: "FXR:RXRa (NR concentration 270 nM, RXRa partner concentration 90 nM)"
  PBM binding z-score: -0.202
- residueSequence: "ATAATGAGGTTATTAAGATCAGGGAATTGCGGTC"
  measurementTarget: "FXR:RXRa (NR concentration 270 nM, RXRa partner concentration 90 nM)"
  PBM binding z-score: 1.9
- residueSequence: "TCATATAGGTAAAAGTTGAAAGTCGGTGTGGTAA"
  measurementTarget: "FXR:RXRa (NR concentration 270 nM, RXRa partner concentration 90 nM)"
  PBM binding z-score: 1.54
- residueSequence: "ATCTCTAGGTAAAACTTCAGTGAATCCCGAGGAT"
  measurementTarget: "FXR:RXRa (NR concentration 270 nM, RXRa partner concentration 90 nM)"
  PBM binding z-score: 0.0366
- residueSequence: "TCTAGTTGGTCAAAGGTCGCACACTCGAAATGCG"
  measurementTarget: "FXR:RXRa (NR concentration 270 nM, RXRa partner concentration 90 nM)"
  PBM binding z-score: 2.96
- residueSequence: "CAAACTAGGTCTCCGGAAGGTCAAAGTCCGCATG"
  measurementTarget: "FXR:RXRa (NR concentration 270 nM, RXRa partner concentration 90 nM)"
  PBM binding z-score: 2.65
- residueSequence: "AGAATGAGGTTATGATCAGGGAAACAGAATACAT"
  measurementTarget: "FXR:RXRa (NR concentration 270 nM, RXRa partner concentration 90 nM)"
  PBM binding z-score: 1.66
- residueSequence: "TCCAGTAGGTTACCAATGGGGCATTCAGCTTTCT"
  measurementTarget: "FXR:RXRa (NR concentration 270 nM, RXRa partner concentration 90 nM)"
  PBM binding z-score: 0.247
- residueSequence: "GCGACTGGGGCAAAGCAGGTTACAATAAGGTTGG"
  measurementTarget: "FXR:RXRa (NR concentration 270 nM, RXRa partner concentration 90 nM)"
  PBM binding z-score: 0.383
- residueSequence: "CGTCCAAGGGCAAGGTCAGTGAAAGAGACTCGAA"
  measurementTarget: "FXR:RXRa (NR concentration 270 nM, RXRa partner concentration 90 nM)"
  PBM binding z-score: 1.95
- residueSequence: "CAGCCTAGGGCAGGGCCAGTATAGGAGGAACGTT"
  measurementTarget: "FXR:RXRa (NR concentration 270 nM, RXRa partner concentration 90 nM)"
  PBM binding z-score: -0.713
- residueSequence: "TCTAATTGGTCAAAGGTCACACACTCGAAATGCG"
  measurementTarget: "FXR:RXRa (NR concentration 270 nM, RXRa partner concentration 90 nM)"
  PBM binding z-score: 6.13

Just for reference, the supplement of paper PMC6555819 is where these values come from.
